Provenance of the data: the RNAGym collection of RNA variant scans (doi:10.1038/nmeth.2970)

B1: NELF-E aptamer (parent)
chain: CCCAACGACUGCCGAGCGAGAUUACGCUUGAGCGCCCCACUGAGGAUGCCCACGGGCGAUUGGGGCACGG

Variants of: B1
Experiment: HiTS-RAP
Settings: with NELF-E (Drosophila)

Variant key: U22G G65C
Kd, nM: 13.4

Variant key: C13A U22G
Kd, nM: 5.85

Variant key: U10A G11U
Kd, nM: 7.2

Variant key: A4G A8C
Kd, nM: 6.29

Variant key: U10C U29G
Kd, nM: 6.02

Variant key: A4G C53A
Kd, nM: 6.64

Variant key: G11U G32A
Kd, nM: 6.15

Variant key: A5G G56U
Kd, nM: 7.96

Variant key: C13U A39G
Kd, nM: 7.82

Variant key: A24G C33G
Kd, nM: 8.38

Variant key: A5C
Kd, nM: 6.55

Variant key: A15U A19G
Kd, nM: 9.2

Variant key: C6A U23G
Kd, nM: 7.03

Variant key: U10G G64A
Kd, nM: 7.4

Variant key: G14U G56A
Kd, nM: 9.7

Variant key: A5G G11U
Kd, nM: 6.9

Variant key: C6G G54A
Kd, nM: 12.5

Variant key: G16U U23G
Kd, nM: 5.85
